target: hT1R1/hT1R3 umami receptor (Homo sapiens, UniProt Q7RTX0+Q7RTX1); construct: expressed in transfected cells; host or cells: HEK293 derivative stably expressing Gα15, clone I-17, expression induced with mifepristone; assay: In vitro hT1R1/hT1R3 umami taste receptor activation assay (FLIPR, dose response); format: cell-based; conditions: Table A, Umami Amides; read-out: Umami EC50
Property Label: EC50 (nM)
Value expressed in nM; do not type the unit.

What EC50 appears in the records for this compound with hT1R1/hT1R3 umami receptor (Homo sapiens, UniProt Q7RTX0+Q7RTX1)? CCCC(CCC)NC(=O)c1ccc(-c2cnco2)cc1 [Example A128, N-(heptan-4-yl)-4-(oxazol-5-yl)benzamide]
400

Observed EC50 on hT1R1/hT1R3 umami receptor (Homo sapiens, UniProt Q7RTX0+Q7RTX1) for C=Cc1ccc(C(=O)NC(CCC)CCC)cc1 [Example A78, N-(heptan-4-yl)-4-vinylbenzamide] , please.
460

Form entry - test system: hT1R1/hT1R3 umami receptor (Homo sapiens, UniProt Q7RTX0+Q7RTX1); read-out: EC50; compound: COc1ccc(C(=O)NC2CCc3cccc(C)c32)cc1C (stereo not shown)
1030

Enter reported EC50 observed with hT1R1/hT1R3 umami receptor (Homo sapiens, UniProt Q7RTX0+Q7RTX1) for CCCC(NC(=O)c1ccc2c(c1)OCO2)C(=O)OC (stereo not shown)
1540

###

Target: hT1R1/hT1R3 umami receptor (Homo sapiens, UniProt Q7RTX0+Q7RTX1)
Construct: expressed in transfected cells; host or cells: HEK293 derivative stably expressing Gα15, clone I-17, expression induced with mifepristone
Sequence (Q7RTX1 21-841): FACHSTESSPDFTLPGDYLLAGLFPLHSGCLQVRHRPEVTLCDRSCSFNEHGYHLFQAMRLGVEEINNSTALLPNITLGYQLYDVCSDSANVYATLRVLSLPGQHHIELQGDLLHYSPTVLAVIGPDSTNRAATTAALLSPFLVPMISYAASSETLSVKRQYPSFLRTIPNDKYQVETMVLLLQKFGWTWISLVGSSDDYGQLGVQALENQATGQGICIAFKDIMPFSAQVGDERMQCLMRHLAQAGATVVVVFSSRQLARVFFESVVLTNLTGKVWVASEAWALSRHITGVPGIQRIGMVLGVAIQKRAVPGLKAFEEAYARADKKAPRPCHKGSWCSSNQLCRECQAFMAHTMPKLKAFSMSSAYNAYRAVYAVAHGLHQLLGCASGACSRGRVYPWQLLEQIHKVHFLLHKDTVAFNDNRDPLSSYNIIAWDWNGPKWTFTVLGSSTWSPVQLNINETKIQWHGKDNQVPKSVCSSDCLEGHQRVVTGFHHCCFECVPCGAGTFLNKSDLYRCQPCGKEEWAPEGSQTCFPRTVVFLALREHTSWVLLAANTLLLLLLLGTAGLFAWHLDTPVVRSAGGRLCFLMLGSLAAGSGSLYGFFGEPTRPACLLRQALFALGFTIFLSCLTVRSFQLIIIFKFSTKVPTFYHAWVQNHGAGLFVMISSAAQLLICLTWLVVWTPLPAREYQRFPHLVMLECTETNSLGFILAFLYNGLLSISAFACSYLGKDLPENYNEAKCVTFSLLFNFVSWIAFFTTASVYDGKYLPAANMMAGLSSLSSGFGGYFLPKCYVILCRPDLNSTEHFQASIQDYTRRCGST
Sequence (Q7RTX0 21-852): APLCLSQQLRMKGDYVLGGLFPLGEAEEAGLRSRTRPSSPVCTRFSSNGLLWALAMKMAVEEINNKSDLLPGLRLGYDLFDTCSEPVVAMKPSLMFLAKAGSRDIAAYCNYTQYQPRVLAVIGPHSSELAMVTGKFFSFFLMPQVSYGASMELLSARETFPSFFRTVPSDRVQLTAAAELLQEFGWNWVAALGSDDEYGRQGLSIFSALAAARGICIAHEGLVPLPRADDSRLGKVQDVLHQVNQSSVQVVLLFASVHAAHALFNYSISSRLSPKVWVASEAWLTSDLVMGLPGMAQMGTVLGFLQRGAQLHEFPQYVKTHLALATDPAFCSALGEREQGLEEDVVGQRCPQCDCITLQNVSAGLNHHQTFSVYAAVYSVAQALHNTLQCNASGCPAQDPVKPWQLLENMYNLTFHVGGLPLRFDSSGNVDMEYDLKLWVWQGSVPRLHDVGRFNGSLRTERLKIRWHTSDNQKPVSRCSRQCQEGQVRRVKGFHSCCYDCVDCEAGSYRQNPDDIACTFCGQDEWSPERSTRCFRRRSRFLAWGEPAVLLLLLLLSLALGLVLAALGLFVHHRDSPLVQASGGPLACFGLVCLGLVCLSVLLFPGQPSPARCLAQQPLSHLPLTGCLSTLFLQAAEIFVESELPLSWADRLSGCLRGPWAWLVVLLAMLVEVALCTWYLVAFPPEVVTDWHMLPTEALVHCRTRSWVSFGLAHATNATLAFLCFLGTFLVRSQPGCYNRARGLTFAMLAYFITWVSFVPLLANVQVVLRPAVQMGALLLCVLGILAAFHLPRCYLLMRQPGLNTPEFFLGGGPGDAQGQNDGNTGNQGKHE
Assay: In vitro hT1R1/hT1R3 umami taste receptor activation assay (FLIPR, dose response)
Assay type: cell-based
Conditions: read-out: EC50 for activation of a hT1R1/hT1R3 umami receptor expressed in an HEK293 cell line
Friendly reminder: EC50 below 2 µM is Fulfilled, at or above is Not fulfilled.

A record lists CCCC(CCC)NC(=O)c1ccc2c(c1)OC(C)O2 (stereo not shown) . Is its EC50 below 2 µM?
Fulfilled

Determine if `CC(C)C[C@@H](NC(=O)c1ccc2c(c1)OCO2)C(=O)NCCc1cccnc1` shows EC50 strictly lower than 2 µM.
Fulfilled

# strict comparison: is reported EC50 < 2 µM? input = COc1ccccc1/C=C/C(=O)NC1CCCCC1C (stereo not shown)
Not fulfilled

Determine whether this molecule shows EC50 lower than 2 µM (ties excluded): COc1ccc(CNC(=O)C(=O)NCC(C)c2ccccn2)c(OC)c1 (stereo not shown)
Fulfilled

Does the reported EC50 of the following molecule sit strictly below 2 µM? `Cc1ccc(CCNC(=O)c2occc2C)cc1`
Not fulfilled

Item CCCC(NC(=O)c1ccc(OC)c(C)c1)c1ccccc1 (stereo not shown) : EC50 beneath 2 µM, strictly?
Not fulfilled

Input `COc1ccc(CNC(=O)C(=O)NCCc2ncccc2C)c(OC)c1` ; condition: EC50 strictly below 2 µM. Does it hold?
Fulfilled

Hi there! Is EC50 for `O=C(NCCc1ccccn1)C(=O)NCc1ccc2c(c1)OCO2` below 2 µM, do you know?
Fulfilled

is_below(EC50, 2 µM) for CCCC(CCC)NC(=O)c1ccc2c(c1)OC(CC(=O)OCC)O2 (stereo not shown) ?
Not fulfilled

Identify whether the molecule `COc1cc(C)ccc1CNC(=O)C(=O)NCCc1ccccn1` records EC50 below 2 µM.
Fulfilled

Origin of measurements: patent US20060045953A1
